- ASSAY_TEXT: self-splicing fitness, log relative to wild type (ln ratio); higher = more splicing; Tetrahymena group I intron in knt gene, E. coli kanamycin selection, DiMSum; sequences stand for … in CUCUCU…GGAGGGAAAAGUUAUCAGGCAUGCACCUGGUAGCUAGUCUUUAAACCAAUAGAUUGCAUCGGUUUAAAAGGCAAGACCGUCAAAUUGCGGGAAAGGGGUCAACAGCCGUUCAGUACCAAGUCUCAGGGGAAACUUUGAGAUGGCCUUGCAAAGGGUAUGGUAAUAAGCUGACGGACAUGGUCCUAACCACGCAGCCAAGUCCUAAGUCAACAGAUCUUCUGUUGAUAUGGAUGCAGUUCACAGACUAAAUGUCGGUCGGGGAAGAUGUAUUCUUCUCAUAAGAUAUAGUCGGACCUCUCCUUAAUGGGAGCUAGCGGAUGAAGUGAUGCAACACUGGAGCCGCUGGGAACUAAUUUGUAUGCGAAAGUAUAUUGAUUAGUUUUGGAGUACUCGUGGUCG;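 also: selection with 25 µg/mL kanamycin versus none on LB agar overnight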
- EXPERIMENTAL_SETUP: 37 °C
Classify by measured self-splicing fitness (ln): YES if it is equal to or exceeds -1, NO if it is smaller.

Solved entries (count: 8):
>>> print(df.to_string())
               residues  assigned_label
0  UCGCAGCAAUAUUACGGGAA              NO
1  CGCCAGCAAUAUUACGUACG             YES
2  GGUUAGCAAUAUUACGACUU             YES
3  ACCUAGCAAUAUUACGCAAA              NO
4  ACCAAGCAAUAUUACGUAGU              NO
5  GAUAAGCAAUAUUACGUCGC              NO
6  GCGGAGCAAUAUUACGAUUU             YES
7  GGAAAGCAAUAUUACGUUCA             YES

Exercise: Check if self-splicing fitness (ln) >= -1 (inclusive). Item: CAUAAGCAAUAUUACGCAAG
Key: YES

Exercise: Answer whether self-splicing fitness (ln) of GUUUAGCAAUAUUACGGACG is greater than or equal to -1.
Key: YES

Exercise: Check if self-splicing fitness (ln) >= -1 (inclusive). Item: GGAUAGCAAUAUUACGUAGA
Key: NO

Exercise: Is self-splicing fitness (ln) at least -1? Consider GGAGAGCAAUAUUACGGGCA
Key: NO

Exercise: Kindly determine if self-splicing fitness (ln) recorded for CAUAAGCAAUAUUACGAUCG is above or exactly -1.
Key: YES

Exercise: hey, is self-splicing fitness (ln) for this one >= -1? CCGUAGCAAUAUUACGCUCA
Key: NO

Exercise: Record UGUUAGCAAUAUUACGCUCG ; criterion: self-splicing fitness (ln) no lower than -1. Met?
Key: YES

Exercise: Tell me whether self-splicing fitness (ln) is at least -1 here: CGCAAGCAAUAUUACGCGGA
Key: NO

Exercise: Hi team, for GAUUAGCAAUAUUACGAUUG , is the recorded self-splicing fitness (ln) at or above -1?
Key: YES

Exercise: Quick check: does GGAUAGCAAUAUUACGCGAG have self-splicing fitness (ln) greater than or equal to -1?
Key: NO

Exercise: Exam item: decide whether the reported self-splicing fitness (ln) for CUUCAGCAAUAUUACGGGUA is at least -1.
Key: NO

Exercise: In plain terms: is recorded self-splicing fitness (ln) at least -1 for UCCUAGCAAUAUUACGGAGA ?
Key: YES

Exercise: Say whether GCACAGCAAUAUUACGUACG shows self-splicing fitness (ln) of -1 or more.
Key: YES

Exercise: Check the entry CACGAGCAAUAUUACGAUAG : does self-splicing fitness (ln) equal or exceed -1?
Key: NO

Exercise: Given UACUAGCAAUAUUACGUGUG , state whether its self-splicing fitness (ln) is at least -1.
Key: YES

Exercise: Exam item: decide whether the reported self-splicing fitness (ln) for AUAGAGCAAUAUUACGUGCG is at least -1.
Key: YES

Exercise: Record CUAGAGCAAUAUUACGAGCG ; criterion: self-splicing fitness (ln) no lower than -1. Met?
Key: YES

Exercise: Hi team, for CAAAAGCAAUAUUACGCCGA , is the recorded self-splicing fitness (ln) at or above -1?
Key: NO

---

self-splicing fitness (ln) values for the sequences below.
- ASSAY_TEXT: self-splicing fitness, log relative to wild type (ln ratio); higher = more splicing; Tetrahymena group I intron in knt gene, E. coli kanamycin selection, DiMSum; sequences stand for … in CUCUCU…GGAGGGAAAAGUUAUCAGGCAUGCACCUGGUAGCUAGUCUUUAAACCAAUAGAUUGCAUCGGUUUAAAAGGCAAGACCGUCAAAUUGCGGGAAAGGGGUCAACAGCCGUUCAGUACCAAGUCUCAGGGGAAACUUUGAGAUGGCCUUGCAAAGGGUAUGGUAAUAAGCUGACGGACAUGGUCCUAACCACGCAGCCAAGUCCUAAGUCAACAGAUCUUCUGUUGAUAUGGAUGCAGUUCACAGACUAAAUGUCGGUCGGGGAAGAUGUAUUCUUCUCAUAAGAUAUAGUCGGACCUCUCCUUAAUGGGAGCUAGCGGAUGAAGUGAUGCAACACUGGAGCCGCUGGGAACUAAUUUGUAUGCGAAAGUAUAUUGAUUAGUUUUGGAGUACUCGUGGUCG
- EXPERIMENTAL_SETUP: 37 °C
Please reply with the number alone, leaving off any unit.

Below: 3 sequences and their reported self-splicing fitness (ln).
In [3]: df
Out[3]:
               residues  reading
0  CUCAAGCAAUAUUACGUCGC    -2.27
1  CUUCAGCAAUAUUACGUUCC    -1.71
2  UUUGAGCAAUAUUACGCAAA    -2.25

Exercise: Entry under review: AAACAGCAAUAUUACGAGUC . Reported self-splicing fitness (ln)?
Key: -2.38

Exercise: Any idea what its self-splicing fitness (ln) is? The sequence is CAUUAGCAAUAUUACGCCCA
Key: -1.47

---

- ASSAY_TEXT: self-splicing fitness, log relative to wild type (ln ratio); higher = more splicing; Tetrahymena group I intron in knt gene, E. coli kanamycin selection, DiMSum; sequences stand for … in CUCUCU…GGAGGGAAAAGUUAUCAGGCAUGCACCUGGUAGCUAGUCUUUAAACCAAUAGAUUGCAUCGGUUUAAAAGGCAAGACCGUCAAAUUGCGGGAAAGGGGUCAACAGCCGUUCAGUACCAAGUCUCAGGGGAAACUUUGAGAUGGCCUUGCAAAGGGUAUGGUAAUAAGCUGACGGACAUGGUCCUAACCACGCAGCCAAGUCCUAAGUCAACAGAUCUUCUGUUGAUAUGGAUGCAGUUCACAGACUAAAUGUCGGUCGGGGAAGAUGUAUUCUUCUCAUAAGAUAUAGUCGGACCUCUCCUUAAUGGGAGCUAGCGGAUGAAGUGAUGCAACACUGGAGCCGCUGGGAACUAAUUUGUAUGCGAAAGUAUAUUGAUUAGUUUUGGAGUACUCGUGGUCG
- EXPERIMENTAL_SETUP: 30 °C
# self-splicing fitness (ln) annotations

// worked examples, self-splicing fitness (ln) included
               residues  reading
0  CCCUAGCAAUAUUACGCAUA    -3.33
1  UAUCAGCAAUAUUACGGUUC    -2.42
2  CAUCAGCAAUAUUACGUCUA    -2.35
3  ACCCAGCAAUAUUACGAACG    -3.06
4  GUUCAGCAAUAUUACGGCAC    -0.46
5  AGCGAGCAAUAUUACGCGAU    -1.78
6  AUUGAGCAAUAUUACGGGGC    -3.06
7  AAUAAGCAAUAUUACGCGCU   -0.554
8  GCGGAGCAAUAUUACGGUUG    -3.64
9  AAUUAGCAAUAUUACGGCCC   -0.766

Exercise: I would be grateful if you could share the reported self-splicing fitness (ln) for CGGCAGCAAUAUUACGUCAG .
Key: -2.04

---

- ASSAY_TEXT: self-splicing fitness, log relative to wild type (ln ratio); higher = more splicing; Tetrahymena group I intron in knt gene, E. coli kanamycin selection, DiMSum; sequences stand for … in CUCUCU…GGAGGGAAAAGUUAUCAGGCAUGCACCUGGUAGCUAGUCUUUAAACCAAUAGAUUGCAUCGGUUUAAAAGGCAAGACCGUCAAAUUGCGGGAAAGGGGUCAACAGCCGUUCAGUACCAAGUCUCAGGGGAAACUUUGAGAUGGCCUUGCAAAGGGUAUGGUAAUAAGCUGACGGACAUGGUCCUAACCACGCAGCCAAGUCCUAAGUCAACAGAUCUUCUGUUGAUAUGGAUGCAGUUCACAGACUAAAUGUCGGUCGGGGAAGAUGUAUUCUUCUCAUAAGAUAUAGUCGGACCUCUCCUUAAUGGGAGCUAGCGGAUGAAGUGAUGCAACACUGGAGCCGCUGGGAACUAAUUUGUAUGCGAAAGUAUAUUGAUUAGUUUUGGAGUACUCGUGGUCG
- EXPERIMENTAL_SETUP: 30 °C
Label Fulfilled when self-splicing fitness (ln) is at or above -3; anything below gets Not fulfilled.

In [3]: df
Out[3]:
               residues  assigned_label
0  AGAGAGCAAUAUUACGAUGG   Not fulfilled
1  AUCCAGCAAUAUUACGUGAA       Fulfilled
2  GUGAAGCAAUAUUACGUAUU       Fulfilled
3  GGCGAGCAAUAUUACGCGUU       Fulfilled
4  CUUAAGCAAUAUUACGCGAA       Fulfilled
5  UGUUAGCAAUAUUACGGCGU       Fulfilled
6  AAAGAGCAAUAUUACGAGGC   Not fulfilled
7  UAGGAGCAAUAUUACGACCG       Fulfilled

Exercise: Record GCGCAGCAAUAUUACGAUGC ; criterion: self-splicing fitness (ln) no lower than -3. Met?
Key: Fulfilled

Exercise: Confirm if self-splicing fitness (ln) reported for the sequence ACGUAGCAAUAUUACGUACU is -3 or above.
Key: Fulfilled

Exercise: Is it the case that AUGAAGCAAUAUUACGUGUA has self-splicing fitness (ln) reaching or exceeding -3?
Key: Fulfilled

Each recorded value in this set is attributed to the supplement of paper PMC7877785.
